Assignment: determine reported inhibition at 300 µM for the given molecules.
- system-name: UniProtKB Q12809
- assay-text: Displacement of [3H]dofetilide from human ERG at 300 uM
- test-conditions: probe [3H]dofetilide
Give the quantity in %, number only.

Would you kindly share the measured inhibition at 300 µM for `CN[C@@H](C)[C@@H]1CCN(c2c(F)cc3c(=O)c(C(=O)O)cn(C4CC4)c3c2OC)C1` ?
40

Another: CC1COc2c(N3CC[C@@H]([C@@H](N)CC#N)C3)c(F)cc3c(=O)c(C(=O)O)cn1c23 (stereo partly drawn)
22

Another: `CCC1(CNCCC#N)CN(c2c(F)cc3c(=O)c(C(=O)O)cn(C4CC4)c3c2C)C1`
25

Another: `COc1c(N2CC[C@@H]([C@H](C)NCCC#N)C2)c(F)cc2c(=O)c(C(=O)O)cn(C3CC3)c12`
2

Another: `COc1c(N2CC[C@@H]([C@@H](N)CC#N)C2)ccc2c(=O)c(C(=O)O)cn(C3CC3)c12`
30

Another: `C[C@H]1COc2c(N3CCN(C)CC3)c(F)cc3c(=O)c(C(=O)O)cn1c23.C[C@H]1COc2c(N3CCN(C)CC3)c(F)cc3c(=O)c(C(=O)O)cn1c23.O`
10

Another: `CN[C@@H](CC#N)[C@@H]1CCN(c2c(F)cc3c(=O)c(C(=O)O)cn(C4CC4)c3c2OC)C1`
9

Another: `COc1c(N2CC[C@@H]([C@@H](N)CC#N)C2)c(F)cc2c(=O)c(C(=O)O)cn(C3CC3)c12`
29

----------
- Test system: Moraxella catarrhalis
- assay-text: Antibacterial activity against Moraxella catarrhalis BC-3531
- Assay type: functional
# yes (1) = MIC below 0.06 µg/mL (exclusive); no (0) = MIC at/above 0.06 µg/mL

Lab note: confirm whether the reported MIC for this compound is below 0.06 µg/mL, equality not counting. compound: `COc1c(N2CC[C@@H](CNCCC#N)C2)c(F)cc2c(=O)c(C(=O)O)cn(C3CC3)c12`
no (0)

Another: `CCC1(CNCCC#N)CN(c2c(F)cc3c(=O)c(C(=O)O)cn(C4CC4)c3c2C)C1`
no (0)

Another: `COc1c(N2CC[C@@H]([C@H](C)N)C2)c(F)cc2c(=O)c(C(=O)O)cn(C3CC3)c12`
yes (1)

Another: `COc1c(N2CC[C@@H](CNCCC#N)C2)ccc2c(=O)c(C(=O)O)cn(C3CC3)c12`
no (0)

Another: `COc1c(N2CC[C@@H]([C@@H](N)CC#N)C2)ccc2c(=O)c(C(=O)O)cn(C3CC3)c12`
no (0)

Another: `COc1c(N2CC[C@@H]([C@@H](N)CC#N)C2)c(F)cc2c(=O)c(C(=O)O)cn(C3CC3)c12`
yes (1)

----------
- system-name: Voltage-gated inwardly rectifying potassium channel KCNH2 (Homo sapiens)
- Sequence (Q12809 whole entry): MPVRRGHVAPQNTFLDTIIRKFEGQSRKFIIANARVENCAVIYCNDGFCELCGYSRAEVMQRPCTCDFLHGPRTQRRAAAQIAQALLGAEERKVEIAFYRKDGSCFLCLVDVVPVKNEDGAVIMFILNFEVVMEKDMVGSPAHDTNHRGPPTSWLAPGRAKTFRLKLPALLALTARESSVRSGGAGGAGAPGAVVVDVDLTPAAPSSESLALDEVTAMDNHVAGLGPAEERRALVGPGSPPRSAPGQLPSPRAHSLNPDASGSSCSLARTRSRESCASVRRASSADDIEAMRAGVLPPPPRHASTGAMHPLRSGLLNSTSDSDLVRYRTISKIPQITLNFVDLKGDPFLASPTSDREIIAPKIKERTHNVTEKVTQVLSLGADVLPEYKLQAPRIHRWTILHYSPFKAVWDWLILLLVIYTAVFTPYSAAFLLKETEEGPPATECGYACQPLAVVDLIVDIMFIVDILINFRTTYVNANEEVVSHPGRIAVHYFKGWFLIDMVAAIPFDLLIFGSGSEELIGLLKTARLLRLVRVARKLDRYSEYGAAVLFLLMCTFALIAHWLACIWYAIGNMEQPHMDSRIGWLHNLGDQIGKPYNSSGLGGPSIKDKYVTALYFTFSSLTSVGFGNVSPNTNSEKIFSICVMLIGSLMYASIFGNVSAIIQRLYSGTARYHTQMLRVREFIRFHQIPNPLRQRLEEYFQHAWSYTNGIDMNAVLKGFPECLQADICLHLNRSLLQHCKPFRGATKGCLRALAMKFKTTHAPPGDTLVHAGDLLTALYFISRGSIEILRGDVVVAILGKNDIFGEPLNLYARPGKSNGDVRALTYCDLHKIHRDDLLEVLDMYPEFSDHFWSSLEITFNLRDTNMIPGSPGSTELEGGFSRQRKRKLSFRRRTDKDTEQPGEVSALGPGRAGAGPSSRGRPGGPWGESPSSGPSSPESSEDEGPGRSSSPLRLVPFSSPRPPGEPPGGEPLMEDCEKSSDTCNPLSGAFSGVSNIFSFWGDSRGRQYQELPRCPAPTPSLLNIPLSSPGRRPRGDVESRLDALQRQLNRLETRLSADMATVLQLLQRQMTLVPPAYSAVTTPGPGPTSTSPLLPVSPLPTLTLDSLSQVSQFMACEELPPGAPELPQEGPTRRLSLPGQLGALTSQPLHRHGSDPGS
Assignment: determine reported pKi for the given compounds.
pKi is a log-scale quantity: -log10 of the concentration expressed in molar.

Would you kindly share the measured pKi for `COc1c(N2CC[C@@H](CN)C2)ccc2c(=O)c(C(=O)O)cn(C3CC3)c12` ?
4.19

Another: `COc1c(N2CC[C@@H](CNCCC#N)C2)c(F)cc2c(=O)c(C(=O)O)cn(C3CC3)c12`
3.97

Another: `Cc1c(N2CC[C@@H]([C@H](C)NCCC#N)C2)c(F)cc2c(=O)c(C(=O)O)cn(C3CC3)c12`
4.14
